# experimental system: HLA-A*0201 (human, UniProt A*02:01)
# protocol details: REVEAL MHC binding assay (ProImmune)
measurement label: % Pass/fail control

Answer with the recorded % Pass/fail control for the binder listed here: LLLPLLLAL [Peptide ID 28 LLLPLLLAL (CD7)]
253 % of pass/fail control

Answer with the recorded % Pass/fail control for the binder listed here: VLIGILLLV [Peptide ID 35 VLIGILLLV (CD18)]
117 % of pass/fail control

Answer with the recorded % Pass/fail control for the binder listed here: ILYPINILV (Modified peptide) [Peptide ID 149 ILYPINILV (CD11a, modified peptide)]
321 % of pass/fail control

Answer with the recorded % Pass/fail control for the binder listed here: LLAEVTLAI [Peptide ID 47 LLAEVTLAI (CD53)]
199 % of pass/fail control

Answer with the recorded % Pass/fail control for the binder listed here: RLYQFLLDL [Peptide ID 66 RLYQFLLDL (PU.1)]
234 % of pass/fail control

Answer with the recorded % Pass/fail control for the binder listed here: AIWLFIFNV [Peptide ID 80 AIWLFIFNV (CD19)]
199 % of pass/fail control

Answer with the recorded % Pass/fail control for the binder listed here: FLPDAFVTM [Peptide ID 16 FLPDAFVTM (TdT)]
164 % of pass/fail control

Answer with the recorded % Pass/fail control for the binder listed here: LLWAGALAM [Peptide ID 86 LLWAGALAM (CD33)]
321 % of pass/fail control
